Items are presented alongside their recorded Growth Rate.
tested on: Fibroblast; test: Incucyte cell viability with human fibroblast; assay type: toxicity, cell-based; conditions: 0 h, 10 µM, compound concentration 10 uM, replicate number 1; also: unitless GR value; below 1 slowed growth and below 0 cell loss
Write the value as a bare number.

State the recorded Growth Rate for this entry: Cn1cnc(Cn2ccc3ccc(CNCc4[nH]c5ccccc5c4[C@@H]4NC(=O)c5ccc(O)cc54)cc32)c1
-0.98

So what's the measured Growth Rate for this one? O=C(Nc1ccc(-n2nc(C(F)(F)F)cc2C(F)(F)F)cc1)c1ccncc1F
-0.09

# input compound: O=C(NNC(=O)c1ccc(CNS(=O)(=O)c2ccc(F)c(Cl)c2)cc1)c1ccccc1 ; wanted: its Growth Rate
-0.42

Looking for the measured Growth Rate of NS(=O)(=O)c1ccc(Nc2nc(OCC3CCCCC3)c3nc[nH]c3n2)cc1 , can you help?
-1

Any idea what its Growth Rate is? The compound is CN1CC(=O)N(C)c2cnc(Nc3ccc(NC(=O)Nc4cccc(C(=O)O)c4)cc3)nc21
-1

Value lookup for Growth Rate; key = C[C@@H](C(N)=O)[C@H](N)c1nc2cc(C(C)(C)C)ccc2[nH]1
0.3

Form field: reported Growth Rate of CN(C)Cc1cccc(NC(=C2C(=O)Nc3cc(C(N)=O)ccc32)c2ccccc2)c1
-0.09

State the recorded Growth Rate for this entry: CCc1cncnc1N1CCN(Cc2nc3cc(C(F)(F)F)ccc3[nH]2)CC1
0.88

Value lookup for Growth Rate; key = NC(=O)c1ccc2[nH]c(-c3ccc(Oc4ccc(Cl)cc4)cc3)nc2c1
0.02

// lookup Growth Rate for CC(C)n1nc(-c2cnc(N)c(OC(F)(F)F)c2)cc1[C@H]1[C@@H]2CN(C3COC3)C[C@@H]21
0.52

Others:
So what's the measured Growth Rate for this one? N#Cc1cccc(-c2c[nH]c3ncnc(N4CCOCC4)c23)c1
-0.42

Requested field: Growth Rate. Item: Cc1c(N2CCNCC2)nc2ccc(Br)cc2c1C(=O)NC[C@H](CCC(=O)O)c1ccccc1Cl
0.47

Growth Rate lookup needed for NCCCNCCCCNCCC(=O)NCCCCCNC(=O)[C@H](CC(N)=O)NC(=O)Cc1ccc(O)cc1O , thanks.
0.16

Any idea what Growth Rate was measured for CC1=NC(C=C2C(=O)Nc3ccc(F)cc32)=C(C)C1C(=O)NCC(O)CN1CCOCC1 (stereo not drawn) ?
0.4

Please give the measured Growth Rate for this compound: FC(F)(F)c1ccc(CNc2ccc(Cc3c[nH]c4ncc(Cl)cc34)cn2)cn1
-1

Param item = CN(C)[C@H]1CCc2nc(NC(=O)c3cccc(Cn4cc(-c5ccc(C#N)cc5)cn4)c3)sc2C1.O=C(O)C(F)(F)F ; retrieve measured Growth Rate.
-0.59

Sample COc1ccc(C(=O)N[C@H](C)c2cccc(C(=O)Nc3nc4c(s3)CN(C)CC4)c2)cc1C.O=C(O)C(F)(F)F — what was its Growth Rate?
0.21

Quick check: Growth Rate of CC(=O)Nc1ncc(CN2CCC[C@H](Cc3cc(C)nc(C)c3)C2)s1 ?
-1
